Compiled from multiple publications: Ki readings for Glutamate receptor ionotropic, kainate 2 (Rattus norvegicus, UniProt P42260).

Could you tell me Ki for each of these molecules? They are listed below.
1. CC(C)(C)ONC(=O)CC[C@H](C[C@H](N)C(=O)O)C(=O)O
2. N[C@@H](Cn1c(=O)n(Cc2ccsc2C(=O)O)c(=O)c2cscc21)C(=O)O
3. N#CCC[C@H](C[C@H](N)C(=O)O)C(=O)O

Response given:
1. > 100 µM
2. 98.9 µM
3. 0.56 µM

// each molecule listed below needs its Ki
1. N[C@@H](Cn1c(=O)n(Cc2ccsc2C(=O)O)c(=O)c2sccc21)C(=O)O
2. N[C@@H](Cn1cc([N+](=O)[O-])c(=O)n(CCC(=O)O)c1=O)C(=O)O
3. NCC[C@H](C[C@H](N)C(=O)O)C(=O)O
4. N[C@@H](Cn1c(=O)ccn(CC(=O)O)c1=O)C(=O)O
5. N[C@@H](Cn1c(=O)[nH]c(=O)c2cscc21)C(=O)O

Response given:
["> 100 µM", "> 100 µM", "10.9 µM", "> 100 µM", "> 100 µM"]

Items follow; give Ki for each.
1. CCN(CC)C(=O)CC[C@H](C[C@H](N)C(=O)O)C(=O)O
2. N[C@@H](Cn1cc(I)c(=O)n(Cc2ccccc2C(=O)O)c1=O)C(=O)O
3. N[C@@H](Cn1ccc(=O)n(CCc2nnn[nH]2)c1=O)C(=O)O

Response given:
8.65 µM
> 100 µM
> 100 µM

* * *

Consider the following Ki data for Glutamate receptor ionotropic, kainate 2 (Rattus norvegicus, UniProt P42260), collected from several reports.

1. N[C@@H](Cn1c(=O)[nH]c(=O)c2c3c(sc21)CCCC3)C(=O)O :: > 1000 µM

Hey, quick one: what's Ki for each of these?
1. Cn1c(=O)ccn(C[C@H](N)C(=O)O)c1=O
2. N[C@@H](Cn1ccc(=O)n(Cc2ccsc2C(=O)O)c1=O)C(=O)O

Response given:
1: > 100 µM; 2: > 100 µM
